# assay.protocol: Ex vivo drug permeation, everted ileum sac model
# Assay type: in vitro ADME, Sprague–Dawley (SD) rats
# measurement.setup: male, Sprague-Dawley, pH 7.4; everted rat ileum sac, 2 h
Where a name gives a salt, the structure may show the parent alone.
value.type: Papp at 2 h (×10⁻⁶ cm/s)
Numbers only here, please. The scale is ×10⁻⁶ cm/s.

Qu. Given CN1CC2c3ccccc3Oc3ccc(Cl)cc3C2C1 (stereo not shown) [ASPM, Asenapine maleate] , respond with its Papp at 2 h.
Ans. 231

###

# assay.protocol: Oral pharmacokinetic study in rats
# Type: in vivo, Sprague–Dawley (SD) rats
# measurement.setup: male, Sprague-Dawley, rat, plasma, po, 5 mg/kg, SD rats, 5 mg/kg ASPM orally, n = 6
Where a name gives a salt, the structure may show the parent alone.
value.type: half-life
Quote the value and follow it with the unit of measurement.

Qu. Given CN1CC2c3ccccc3Oc3ccc(Cl)cc3C2C1 (stereo not shown) [ASPM, Asenapine maleate] , respond with its half-life.
Ans. 1510 min

###

# assay.protocol: Oral pharmacokinetic study in rats
# Assay type: in vivo, Sprague–Dawley (SD) rats
# measurement.setup: male, Sprague-Dawley, rat, plasma, po; SD rats, 5 mg/kg ASPM orally, n = 6
Counter-ions that a name gives are not always drawn.
value.type: Tmax (h)
Numbers only here, please. The scale is h.

Qu. Given CN1CC2c3ccccc3Oc3ccc(Cl)cc3C2C1 (stereo not shown) [ASPM, Asenapine maleate] , respond with its Tmax.
Ans. 1

###

# assay.protocol: Ex vivo drug permeation, everted ileum sac model
# Assay type: in vitro ADME, Sprague–Dawley (SD) rats
# measurement.setup: male, Sprague-Dawley, pH 7.4; everted rat ileum sac, 3 h
Where a name gives a salt, the structure may show the parent alone.
value.type: Papp at 3 h (×10⁻⁶ cm/s)
Numbers only here, please. The scale is ×10⁻⁶ cm/s.

Qu. Given CN1CC2c3ccccc3Oc3ccc(Cl)cc3C2C1 (stereo not shown) [ASPM, Asenapine maleate] , respond with its Papp at 3 h.
Ans. 206

###

# assay.protocol: Oral pharmacokinetic study in rats
# Format: in vivo, Sprague–Dawley (SD) rats
# measurement.setup: male, Sprague-Dawley, rat, plasma, po; SD rats, 5 mg/kg ASPM orally, n = 6
Structures can show the parent of a compound that is named as a salt.
value.type: AUC(0-inf) (ng·h/mL)
Numbers only here, please. The scale is ng·h/mL.

Qu. Given CN1CC2c3ccccc3Oc3ccc(Cl)cc3C2C1 (stereo not shown) [ASPM, Asenapine maleate] , respond with its AUC(0-inf).
Ans. 3640
